Tested on: MDA-MB-231 multicell spheroids, viability
Experiment: Anticancer human tumor MDA-MB-231 cell line growth inhibition [PI3K]; active = viability on the fitted dose curve at most 10% of control; inactive = the rest
Settings: second compound 1 µM; first compound 3 µM
Pick from active, inactive when you respond.

molecule="Cn1cnc2c(F)c(Nc3ccc(Br)cc3Cl)c(C(=O)NOCCO)cc21 + CC(Nc1ncnc2nc[nH]c12)c1cc2cccc(Cl)c2c(=O)n1-c1ccccc1" class_name=inactive
molecule="Cn1cnc2c(F)c(Nc3ccc(Br)cc3Cl)c(C(=O)NOCCO)cc21 + COc1c(OCCCN2CCOCC2)ccc2c3n(c(=NC(=O)c4cnc(N)nc4)nc12)CCN3" class_name=active
molecule="Cn1cnc2c(F)c(Nc3ccc(Br)cc3Cl)c(C(=O)NOCCO)cc21 + Cc1nc(NC(=O)N2CCCC2C(N)=O)sc1-c1ccnc(C(C)(C)C(F)(F)F)c1" class_name=inactive

Okay, next one:
INPUT: Which outcome was assigned to Cn1cnc2c(F)c(Nc3ccc(Br)cc3Cl)c(C(=O)NOCCO)cc21 + CC(Nc1ccc2c(c1)OCCn1cc(N3C(=O)OCC3C(F)F)nc1-2)C(N)=O in this test?
OUTPUT: inactive

* * *

Test system: MDA-MB-231 multicell spheroids, viability
Assay: Anticancer human tumor MDA-MB-231 cell line growth inhibition [PI3K]
Settings: second compound 0.1 µM; first compound 0.03 µM; active compounds read low
measured-attribute: viability, T/C

Example entries and their recorded answers appear below.
compound="Cn1cnc2c(F)c(Nc3ccc(Br)cc3Cl)c(C(=O)NOCCO)cc21 + CC(Nc1ncnc2nc[nH]c12)c1cc2cccc(Cl)c2c(=O)n1-c1ccccc1" experimental_value=63.9%
compound="Cn1cnc2c(F)c(Nc3ccc(Br)cc3Cl)c(C(=O)NOCCO)cc21 + CC(Nc1ccc2c(c1)OCCn1cc(N3C(=O)OCC3C(F)F)nc1-2)C(N)=O" experimental_value=41.7%
compound="Cn1cnc2c(F)c(Nc3ccc(Br)cc3Cl)c(C(=O)NOCCO)cc21 + COc1c(OCCCN2CCOCC2)ccc2c3n(c(=NC(=O)c4cnc(N)nc4)nc12)CCN3" experimental_value=30.3%

Record for Cn1cnc2c(F)c(Nc3ccc(Br)cc3Cl)c(C(=O)NOCCO)cc21 + Cc1nc(NC(=O)N2CCCC2C(N)=O)sc1-c1ccnc(C(C)(C)C(F)(F)F)c1 under target or system MDA-MB-231 multicell spheroids, viability: viability, T/C reported as 51.1%

* * *

Tested on: MDA-MB-231 multicell spheroids, viability
Experiment: Anticancer human tumor MDA-MB-231 cell line growth inhibition [PI3K];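 also: spheroids exposed to agents for seven days before reading; percent of vehicle control luminescence with DMSO treated spheroids as 100%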
Conditions: second compound 0.1 µM; first compound 0.1 µM; active compounds read low
measured-attribute: viability, T/C (%)
Give bare numbers, in %.

compound="C[C@@H](NC(=O)c1ncnc(N)c1Cl)c1ncc(C(=O)Nc2cc(C(F)(F)F)c(Cl)cn2)s1 + CC(Nc1ccc2c(c1)OCCn1cc(N3C(=O)OCC3C(F)F)nc1-2)C(N)=O" study_target="MDA-MB-231 multicell spheroids, viability" measured_attribute="viability, T/C" unit_symbol=% experimental_value=66.4
compound="C[C@@H](NC(=O)c1ncnc(N)c1Cl)c1ncc(C(=O)Nc2cc(C(F)(F)F)c(Cl)cn2)s1 + COc1c(OCCCN2CCOCC2)ccc2c3n(c(=NC(=O)c4cnc(N)nc4)nc12)CCN3" study_target="MDA-MB-231 multicell spheroids, viability" measured_attribute="viability, T/C" unit_symbol=% experimental_value=49.6
compound="CC(Cn1ccc(-c2ccc(C#N)c(Cl)c2)n1)NC(=O)c1cc(C(C)O)[nH]n1 (stereo not given) + CC(Nc1ncnc2nc[nH]c12)c1cc2cccc(Cl)c2c(=O)n1-c1ccccc1" study_target="MDA-MB-231 multicell spheroids, viability" measured_attribute="viability, T/C" unit_symbol=% experimental_value=98.3

Give viability, T/C for all compounds that follow.
1. CC1(C)CCC(CN2CCN(c3ccc(C(=O)NS(=O)(=O)c4ccc(NCC5CCOCC5)c([N+](=O)[O-])c4)c(Oc4cnc5[nH]ccc5c4)c3)CC2)=C(c2ccc(Cl)cc2)C1 + Cc1nc(NC(=O)N2CCCC2C(N)=O)sc1-c1ccnc(C(C)(C)C(F)(F)F)c1
2. CC1(C)CCC(CN2CCN(c3ccc(C(=O)NS(=O)(=O)c4ccc(NCC5CCOCC5)c([N+](=O)[O-])c4)c(Oc4cnc5[nH]ccc5c4)c3)CC2)=C(c2ccc(Cl)cc2)C1 + COc1c(OCCCN2CCOCC2)ccc2c3n(c(=NC(=O)c4cnc(N)nc4)nc12)CCN3

OUTPUT:
90.3
45.6

* * *

Test system: MDA-MB-231 multicell spheroids, viability
Assay: Anticancer human tumor MDA-MB-231 cell line growth inhibition [PI3K];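 also: spheroids exposed to agents for seven days before reading; percent of vehicle control luminescence with DMSO treated spheroids as 100%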
Conditions: second compound 0.1 µM; first compound 0.00316 µM; active compounds read low
measured-attribute: viability, T/C (%)
Numbers only, in %.

Batch request: viability, T/C for each of the following molecules.
1. Cn1ncnc1[C@H]1c2n[nH]c(=O)c3cc(F)cc(c23)N[C@@H]1c1ccc(F)cc1 + COc1c(OCCCN2CCOCC2)ccc2c3n(c(=NC(=O)c4cnc(N)nc4)nc12)CCN3
2. CC(C)n1nc(-c2ccc3oc(N)nc3c2)c2c(N)ncnc21 + CC(Nc1ncnc2nc[nH]c12)c1cc2cccc(Cl)c2c(=O)n1-c1ccccc1
3. CC(=O)c1c(C)c2cnc(Nc3ccc(N4CCNCC4)cn3)nc2n(C2CCCC2)c1=O + COc1c(OCCCN2CCOCC2)ccc2c3n(c(=NC(=O)c4cnc(N)nc4)nc12)CCN3

OUTPUT:
1. 43
2. 91.9
3. 41.3

* * *

Tested on: MDA-MB-231 multicell spheroids, viability
Experiment: Anticancer human tumor MDA-MB-231 cell line growth inhibition [PI3K];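 also: spheroids exposed to agents for seven days before reading; percent of vehicle control luminescence with DMSO treated spheroids as 100%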
Conditions: second compound 0.0316 µM; first compound 0.1 µM; active compounds read low
Criterion: viability, T/C strictly less than 80%. Met: 1 (yes). Not met: 0 (no).

Use these answered entries as a reference point.
molecule="CC1(C)CCC(CN2CCN(c3ccc(C(=O)NS(=O)(=O)c4ccc(NCC5CCOCC5)c([N+](=O)[O-])c4)c(Oc4cnc5[nH]ccc5c4)c3)CC2)=C(c2ccc(Cl)cc2)C1 + COc1c(OCCCN2CCOCC2)ccc2c3n(c(=NC(=O)c4cnc(N)nc4)nc12)CCN3" class_name="1 (yes)"
molecule="C#Cc1c(F)ccc2cc(O)cc(-c3ncc4c(N5CC6CCC(C5)N6)nc(OCC56CCCN5CC(F)C6)nc4c3F)c12 (stereo not given) + Cc1nc(NC(=O)N2CCCC2C(N)=O)sc1-c1ccnc(C(C)(C)C(F)(F)F)c1" class_name="0 (no)"
molecule="CCCS(=O)(=O)Nc1ccc(F)c(C(=O)c2c[nH]c3ncc(-c4ccc(Cl)cc4)cc23)c1F + Cc1nc(NC(=O)N2CCCC2C(N)=O)sc1-c1ccnc(C(C)(C)C(F)(F)F)c1" class_name="0 (no)"

// next entry
INPUT: viability, T/C strictly < 80% for this molecule? CCCS(=O)(=O)Nc1ccc(F)c(C(=O)c2c[nH]c3ncc(-c4ccc(Cl)cc4)cc23)c1F + COc1c(OCCCN2CCOCC2)ccc2c3n(c(=NC(=O)c4cnc(N)nc4)nc12)CCN3
OUTPUT: 1 (yes)

* * *

Tested on: MDA-MB-231 multicell spheroids, viability
Assay: Anticancer human tumor MDA-MB-231 cell line growth inhibition [PI3K];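 also: spheroids exposed to agents for seven days before reading; percent of vehicle control luminescence with DMSO treated spheroids as 100%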
Conditions: second compound 10 µM; first compound 0.01 µM; active compounds read low
From the text: Combinatorial screen of targeted agents with the PI3K inhibitors inavolisib, alpelisib, duvelisib, and copanlisib in multi-cell type tumor spheroids A high-throughput screen of multi-cell type tumor spheroids was designed to identify active combinations of targeted small molecules and PI3K pathway inhibitors. […] Compounds. […] If the clinical Cmax for an agent had not been determined, the highest concentration tested was 10 microM. […]
# label = 1 if viability, T/C < 50% else -1

Completed entries (count: 5):
compound="CC(=O)c1c(C)c2cnc(Nc3ccc(N4CCNCC4)cn3)nc2n(C2CCCC2)c1=O + CC(Nc1ncnc2nc[nH]c12)c1cc2cccc(Cl)c2c(=O)n1-c1ccccc1" class_name=1
compound="CCN1CCN(Cc2ccc(Nc3ncc(F)c(-c4cc(F)c5nc(C)n(C(C)C)c5c4)n3)nc2)CC1 + CC(Nc1ncnc2nc[nH]c12)c1cc2cccc(Cl)c2c(=O)n1-c1ccccc1" class_name=1
compound="CC(=O)c1c(C)c2cnc(Nc3ccc(N4CCNCC4)cn3)nc2n(C2CCCC2)c1=O + Cc1nc(NC(=O)N2CCCC2C(N)=O)sc1-c1ccnc(C(C)(C)C(F)(F)F)c1" class_name=-1
compound="CC(C)n1nc(-c2ccc3oc(N)nc3c2)c2c(N)ncnc21 + CC(Nc1ncnc2nc[nH]c12)c1cc2cccc(Cl)c2c(=O)n1-c1ccccc1" class_name=1
compound="CC(C)n1nc(-c2ccc3oc(N)nc3c2)c2c(N)ncnc21 + Cc1nc(NC(=O)N2CCCC2C(N)=O)sc1-c1ccnc(C(C)(C)C(F)(F)F)c1" class_name=1

INPUT: Consider the compound CCN1CCN(Cc2ccc(Nc3ncc(F)c(-c4cc(F)c5nc(C)n(C(C)C)c5c4)n3)nc2)CC1 + Cc1nc(NC(=O)N2CCCC2C(N)=O)sc1-c1ccnc(C(C)(C)C(F)(F)F)c1 . Is its viability, T/C strictly less than 50%?
OUTPUT: -1

INPUT: Is it true that viability, T/C reported for Cn1ncnc1[C@H]1c2n[nH]c(=O)c3cc(F)cc(c23)N[C@@H]1c1ccc(F)cc1 + Cc1nc(NC(=O)N2CCCC2C(N)=O)sc1-c1ccnc(C(C)(C)C(F)(F)F)c1 is less than 50%?
OUTPUT: -1

INPUT: Given Cn1ncnc1[C@H]1c2n[nH]c(=O)c3cc(F)cc(c23)N[C@@H]1c1ccc(F)cc1 + CC(Nc1ncnc2nc[nH]c12)c1cc2cccc(Cl)c2c(=O)n1-c1ccccc1 , is recorded viability, T/C strictly lower than 50%?
OUTPUT: 1
